Form field: activation at 1 µM (one value per entry).
Tested on: T cells / MDSCs
testName: Promotion of T cell proliferation in a co-culture model of MDSCs and T cells
Assay type: cell-based, mouse
testParameters: Mus musculus, T-cell, 12 h, read-out: T-cell proliferation rate (%), 1 μM, MDSCs treated 12 hours, co-culture of MDSCs and T cells, compared to the control group
reportedProperty: activation at 1 µM

>>> assayresult("C=C1C(=O)O[C@H]2[C@H]1CCC(C)=C1CC[C@@](C)(OC(=O)NC)[C@@H]12 [Compound 64]")
"> 40%"
>>> assayresult("C[C@@]12CC[C@@H]3[C@H](OC(=O)[C@H]3CN3CCNCC3)[C@@H]3[C@]1(CC[C@@]3(C)O)C2 [Compound 7]")
"0 to 20%"
>>> assayresult("C=C1C(=O)O[C@H]2[C@H]1CCC(C)=C1CC[C@@](C)(OC(=O)N(CC)CCC)[C@@H]12 [Compound 91]")
"20 to 40%"
>>> assayresult("C=C1C(=O)O[C@H]2[C@H]1CCC(C)=C1CC[C@@](C)(OC(=O)NCc3ccccc3)[C@@H]12 [Compound 79]")
"20 to 40%"
>>> assayresult("C=C1C(=O)O[C@H]2[C@H]1CCC(C)=C1CC[C@@](C)(OC(=O)N3CCCC3)[C@@H]12 [Compound 82]")
"> 40%"
>>> assayresult("C=C1C(=O)O[C@H]2[C@H]1CCC(C)=C1CC[C@@](C)(OC(=O)NCCOCCO)[C@@H]12 [Compound 76]")
"20 to 40%"
>>> assayresult("C[C@@]12CC[C@@H]3[C@H](OC(=O)[C@H]3CN3CCCCC3)[C@@H]3[C@]1(CC[C@@]3(C)O)C2 [Compound 5]")
"20 to 40%"
